Kd values, listed per item
- study_target: T1, monomeric recombinant cynomologus monkey Notch3 extracellular domain (containing EGF like domains 1-12) … (cynomologus monkey)
- T1 construct: domain: EGF like domains 1-12; also called monomeric rcNotch3
- method_description: SPR BIAcore T100, antibody captured by anti-human IgG Fc, monomeric rcNotch3 analyte, 37 C
Only the number, expressed in nM, is required.

Record excerpt, results attached:
Hu4F11-80 (antibody, human IgG1, kappa, V domains shown, Humanized, human IgG1 kappa; Hv3-23 S31H T62S heavy + Kv2D-29 N28Q kappa) VH: EVQLLESGGGLVQPGGSLRLSCAASGFAFSHYDMSWVRQAPGKGLEWVSYISRGGGSTYYPDSVKGRFTISRDNSKNTLYLQMNSLRAEDTAVYYCGRHATTAYWYFDVWGQGTMVTVSS VL: DVVMTQTPLSLSVTPGQPASISCRSSQSLVHTQGNTYLHWYLQKPGQSPQLLIYKVSNRFSGVPDRFSGSGSGTDFTLKISRVEAEDVGVYFCSQSTHVPWTFGQGTKVEIKR :: 12
Hu4F11-73 (antibody, human IgG1, kappa, V domains shown, Humanized, human IgG1 kappa; Hv3-23 A28T S31N T62S heavy + Kv2D-29 N28Y kappa) VH: EVQLLESGGGLVQPGGSLRLSCAASGFTFSNYDMSWVRQAPGKGLEWVSYISRGGGSTYYPDSVKGRFTISRDNSKNTLYLQMNSLRAEDTAVYYCGRHATTAYWYFDVWGQGTMVTVSS VL: DVVMTQTPLSLSVTPGQPASISCRSSQSLVHTYGNTYLHWYLQKPGQSPQLLIYKVSNRFSGVPDRFSGSGSGTDFTLKISRVEAEDVGVYFCSQSTHVPWTFGQGTKVEIKR :: 15

Please look at the following binder next.
State its Kd for this binder: Hu4F11-32 (antibody, human IgG1, kappa, V domains shown, Humanized, human IgG1 kappa; Sh4F11 Hv3-23 heavy + Hu4F11 Kv2D-29 kappa) VH: EVQLLESGGGLVQPGGSLRLSCAASGFAFSSYDMSWVRQAPGKGLEWVSYISRGGGSTYYPDTVKGRFTISRDNSKNTLYLQMNSLRAEDTAVYYCGRHATTAYWYFDVWGQGTMVTVSS VL: DVVMTQTPLSLSVTPGQPASISCRSSQSLVHTNGNTYLHWYLQKPGQSPQLLIYKVSNRFSGVPDRFSGSGSGTDFTLKISRVEAEDVGVYFCSQSTHVPWTFGQGTKVEIKR 32
